Collected DC50 values appear next to each entry.
molecular target: SMARCA4 (Homo sapiens (Human)); assay: SMARCA4 HiBiT degradation assay in HeLa cells; assay type: cell-based; conditions: 18 hours, read-out: DC50 (SM4-HeLa) SMARCA4 degradation potency
Observation type: DC50

compound="Cc1ncsc1-c1ccc([C@H](C)NC(=O)[C@@H]2C[C@@H](O)CN2C(=O)[C@@H](c2cc(O[C@@H](C)CN3CCC(CN4CCN5c6cc(-c7ccccc7O)nnc6NC[C@H]5C4)CC3)no2)C(C)C)cc1 [Example 100]" measurement_target="SMARCA4 (Homo sapiens (Human))" observation_type=DC50 value_observed="< 100 nM"
compound="Cc1ncsc1-c1ccc([C@H](C)NC(=O)[C@@H]2C[C@@H](O)CN2C(=O)[C@@H](c2cc(OCCN3CCC(N4CCN5c6cc(-c7ccccc7O)nnc6NC[C@H]5C4)C(C)C3)no2)C(C)C)cc1 (single isomer, unassigned) [Example 55]" measurement_target="SMARCA4 (Homo sapiens (Human))" observation_type=DC50 value_observed="< 100 nM"
compound="Cc1ncsc1-c1ccc([C@H](C)NC(=O)[C@@H]2C[C@@H](O)CN2C(=O)[C@@H](c2cc(O[C@H](C)C(=O)N3CCC(N4CCN5c6cc(-c7ccccc7O)nnc6NC[C@H]5C4)CC3)no2)C(C)C)cc1 [Example 73]" measurement_target="SMARCA4 (Homo sapiens (Human))" observation_type=DC50 value_observed="100 to 1000 nM"
compound="Cc1ncsc1-c1ccc([C@H](C)NC(=O)[C@@H]2C[C@@H](O)CN2C(=O)[C@@H](c2cc(OCCN3CCC(N4CCC(N5CCN6c7cc(-c8ccccc8O)nnc7NC[C@H]6C5)CC4)C3)no2)C(C)C)cc1 (stereo partly shown) [Example 25]" measurement_target="SMARCA4 (Homo sapiens (Human))" observation_type=DC50 value_observed="100 to 1000 nM"

---

target: bromodomain of SMARCA2 protein (Homo sapiens (Human), UniProt P40337+P51531); assay: SMARCA2 bromodomain ternary binding TR-FRET assay (with VCB); conditions: with saturating VCB (5 μM); read-out: IC50 (SM 2_T) ternary binding potency in SMARCA2 FRET assay
Sequence (P51531 whole entry, looked up): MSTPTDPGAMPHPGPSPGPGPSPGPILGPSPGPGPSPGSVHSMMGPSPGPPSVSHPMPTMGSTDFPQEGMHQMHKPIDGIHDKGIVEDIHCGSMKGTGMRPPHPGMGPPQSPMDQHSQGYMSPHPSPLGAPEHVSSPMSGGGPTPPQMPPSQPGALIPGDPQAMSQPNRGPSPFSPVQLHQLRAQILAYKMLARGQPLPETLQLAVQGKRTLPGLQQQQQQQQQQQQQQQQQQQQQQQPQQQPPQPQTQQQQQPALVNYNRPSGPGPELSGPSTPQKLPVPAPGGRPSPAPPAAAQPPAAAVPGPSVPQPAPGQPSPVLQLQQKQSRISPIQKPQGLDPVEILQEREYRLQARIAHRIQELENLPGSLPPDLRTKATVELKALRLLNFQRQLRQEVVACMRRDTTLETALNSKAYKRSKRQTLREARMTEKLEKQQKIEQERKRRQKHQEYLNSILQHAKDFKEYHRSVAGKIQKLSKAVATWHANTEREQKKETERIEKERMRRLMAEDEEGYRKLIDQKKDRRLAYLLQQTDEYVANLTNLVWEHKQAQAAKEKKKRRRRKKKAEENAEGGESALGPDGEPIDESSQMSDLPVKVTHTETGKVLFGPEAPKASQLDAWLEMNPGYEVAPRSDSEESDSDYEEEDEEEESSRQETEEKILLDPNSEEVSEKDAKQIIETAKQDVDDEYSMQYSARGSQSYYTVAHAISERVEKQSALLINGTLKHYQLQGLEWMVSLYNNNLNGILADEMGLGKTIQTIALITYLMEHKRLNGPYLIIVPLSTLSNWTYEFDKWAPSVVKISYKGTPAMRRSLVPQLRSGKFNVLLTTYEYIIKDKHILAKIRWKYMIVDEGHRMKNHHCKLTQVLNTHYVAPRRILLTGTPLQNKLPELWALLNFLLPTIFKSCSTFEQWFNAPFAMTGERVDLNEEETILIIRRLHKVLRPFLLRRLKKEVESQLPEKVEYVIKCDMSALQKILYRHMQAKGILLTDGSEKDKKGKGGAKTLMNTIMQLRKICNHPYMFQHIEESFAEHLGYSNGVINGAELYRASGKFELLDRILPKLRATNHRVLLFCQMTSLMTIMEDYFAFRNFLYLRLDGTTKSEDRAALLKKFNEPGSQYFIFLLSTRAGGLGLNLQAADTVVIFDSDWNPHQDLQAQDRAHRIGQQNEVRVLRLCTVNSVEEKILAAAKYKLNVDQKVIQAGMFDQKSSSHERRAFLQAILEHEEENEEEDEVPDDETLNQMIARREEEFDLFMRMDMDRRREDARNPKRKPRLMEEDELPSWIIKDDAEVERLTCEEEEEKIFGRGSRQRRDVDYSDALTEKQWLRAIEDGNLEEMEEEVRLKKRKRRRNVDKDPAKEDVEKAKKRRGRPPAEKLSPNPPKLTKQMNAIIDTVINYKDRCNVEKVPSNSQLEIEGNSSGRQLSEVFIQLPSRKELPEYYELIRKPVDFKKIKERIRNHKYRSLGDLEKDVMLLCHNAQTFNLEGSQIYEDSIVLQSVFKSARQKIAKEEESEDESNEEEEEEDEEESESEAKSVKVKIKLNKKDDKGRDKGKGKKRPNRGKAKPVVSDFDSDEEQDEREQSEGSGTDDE
Sequence (P40337 whole entry, looked up): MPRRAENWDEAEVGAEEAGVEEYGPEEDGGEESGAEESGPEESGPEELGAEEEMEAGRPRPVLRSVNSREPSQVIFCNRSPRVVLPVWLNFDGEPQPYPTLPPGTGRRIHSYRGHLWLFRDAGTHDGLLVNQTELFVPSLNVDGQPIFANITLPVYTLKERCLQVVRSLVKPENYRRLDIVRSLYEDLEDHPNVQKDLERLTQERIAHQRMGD
Sequence (Q15370 whole entry partner, looked up): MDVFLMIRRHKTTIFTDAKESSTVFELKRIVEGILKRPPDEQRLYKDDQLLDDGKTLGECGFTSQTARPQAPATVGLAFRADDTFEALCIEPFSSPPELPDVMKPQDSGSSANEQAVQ
Sequence (Q15369 whole entry partner, looked up): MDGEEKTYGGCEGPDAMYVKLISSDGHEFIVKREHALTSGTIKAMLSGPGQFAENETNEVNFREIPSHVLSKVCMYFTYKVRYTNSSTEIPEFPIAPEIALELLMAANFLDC
pIC50: −log10 of the molar value.
Observation type: pIC50

compound="Cc1scnc1-c1ccc(CNC(=O)[C@@H]2C[C@@H](O)CN2C(=O)[C@@H](NC(=O)CN2CCN3c4cc(-c5ccccc5O)nnc4NCC3C2)C(C)(C)C)cc1 (single isomer, unassigned) [Example 2a]" value_observed="6.00 to 7.00"
compound="Cc1ncsc1-c1ccc([C@H](C)NC(=O)[C@@H]2C[C@@H](O)CN2C(=O)[C@@H](NC(=O)CN2CCN3c4cc(-c5ccccc5O)nnc4NCC3C2)C(C)(C)C)cc1 (single isomer, unassigned) [Example 1a]" value_observed="6.00 to 7.00"
compound="Cc1ncsc1-c1ccc([C@H](C)NC(=O)[C@@H]2C[C@@H](O)CN2C(=O)C(c2cc(OCCN3CCC(CN4CCN5c6cc(-c7ccccc7O)nnc6NCC5C4)CC3)no2)C(C)C)cc1 (stereo in doubt) [Example 5]" value_observed="> 7.00"
compound="Cc1ncsc1-c1ccc([C@H](C)NC(=O)[C@@H]2C[C@@H](O)CN2C(=O)[C@@H](NC(=O)CN2CCN3c4cc(-c5ccccc5O)nnc4NCC3C2)C(C)(C)C)cc1 (single isomer, unassigned) [Example 1b]" value_observed="> 7.00"

---

molecular target: SMARCA4 (Homo sapiens (Human), UniProt P51532); experiment: SMARCA4 HiBiT degradation assay in HeLa cells; format: cell-based; details: 18 hours
Sequence (P51532 whole entry): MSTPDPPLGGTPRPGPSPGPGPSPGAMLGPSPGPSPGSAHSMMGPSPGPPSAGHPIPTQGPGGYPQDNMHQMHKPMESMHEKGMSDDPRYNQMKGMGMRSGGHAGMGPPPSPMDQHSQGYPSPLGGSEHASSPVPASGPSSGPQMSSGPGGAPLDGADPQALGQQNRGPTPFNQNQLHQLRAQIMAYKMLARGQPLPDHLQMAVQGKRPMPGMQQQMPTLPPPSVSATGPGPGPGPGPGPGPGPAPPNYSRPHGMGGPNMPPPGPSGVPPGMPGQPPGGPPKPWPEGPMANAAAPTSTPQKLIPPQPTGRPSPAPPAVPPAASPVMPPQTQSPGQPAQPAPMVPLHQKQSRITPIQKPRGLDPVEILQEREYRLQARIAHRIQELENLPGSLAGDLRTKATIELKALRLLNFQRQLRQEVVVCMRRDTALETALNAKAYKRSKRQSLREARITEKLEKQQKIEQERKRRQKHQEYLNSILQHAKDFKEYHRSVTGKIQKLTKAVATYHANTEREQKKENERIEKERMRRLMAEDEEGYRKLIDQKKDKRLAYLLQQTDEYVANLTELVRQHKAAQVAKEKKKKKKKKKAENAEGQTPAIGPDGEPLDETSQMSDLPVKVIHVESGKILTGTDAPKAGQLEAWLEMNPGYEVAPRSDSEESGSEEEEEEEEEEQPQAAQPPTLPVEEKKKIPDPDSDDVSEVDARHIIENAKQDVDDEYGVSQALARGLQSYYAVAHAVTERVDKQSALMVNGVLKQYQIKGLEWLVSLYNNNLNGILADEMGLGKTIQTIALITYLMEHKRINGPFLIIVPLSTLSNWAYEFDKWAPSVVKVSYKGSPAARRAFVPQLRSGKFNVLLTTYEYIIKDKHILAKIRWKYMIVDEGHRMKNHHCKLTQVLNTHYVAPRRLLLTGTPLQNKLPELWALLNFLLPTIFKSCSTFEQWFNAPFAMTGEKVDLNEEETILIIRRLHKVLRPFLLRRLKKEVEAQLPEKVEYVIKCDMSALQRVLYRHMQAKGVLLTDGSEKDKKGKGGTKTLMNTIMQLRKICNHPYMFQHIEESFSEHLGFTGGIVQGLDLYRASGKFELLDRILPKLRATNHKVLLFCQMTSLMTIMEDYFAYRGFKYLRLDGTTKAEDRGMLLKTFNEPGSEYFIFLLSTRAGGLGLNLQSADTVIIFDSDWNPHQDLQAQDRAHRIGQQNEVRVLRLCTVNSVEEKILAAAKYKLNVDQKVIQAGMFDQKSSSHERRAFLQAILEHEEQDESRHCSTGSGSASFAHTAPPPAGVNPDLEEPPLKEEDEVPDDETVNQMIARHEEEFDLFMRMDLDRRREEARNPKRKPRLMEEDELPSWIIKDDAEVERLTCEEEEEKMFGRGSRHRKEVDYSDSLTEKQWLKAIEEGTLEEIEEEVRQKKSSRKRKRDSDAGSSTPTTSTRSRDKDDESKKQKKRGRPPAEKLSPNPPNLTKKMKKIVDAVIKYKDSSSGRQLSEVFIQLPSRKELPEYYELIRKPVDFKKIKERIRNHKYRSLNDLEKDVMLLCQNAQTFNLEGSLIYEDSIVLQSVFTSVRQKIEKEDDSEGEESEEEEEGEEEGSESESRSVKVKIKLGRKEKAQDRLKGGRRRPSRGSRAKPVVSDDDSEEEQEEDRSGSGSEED
Observation type: Dmax % (SM4-HeLa) maximum SMARCA4 degradation within the concentrations tested

molecule="CCC(CN1CCC(N2CCN3c4cc(-c5ccccc5O)nnc4NC[C@H]3C2)C1)Oc1cc(C(C(=O)N2C[C@H](O)C[C@H]2C(=O)N[C@@H](C)c2ccc(-c3scnc3C)cc2)C(C)C)on1 (some centres unmarked) [Example 61]" value_observed="B (B = 50%< Dmax <=75%)"
molecule="Cc1ncsc1-c1ccc([C@H](C)NC(=O)[C@@H]2C[C@@H](O)CN2C(=O)[C@@H](c2cc(O[C@@H](C)CN3CCC(N4CCN5c6cc(-c7ccccc7O)nnc6NC[C@H]5C4)C3)no2)C(C)C)cc1 (some centres unmarked) [Example 49]" value_observed="A/A (A = Dmax >75%)"
molecule="CCC(CN1CCC(N2CCN3c4cc(-c5ccccc5O)nnc4NC[C@H]3C2)C1)Oc1cc(C(C(=O)N2C[C@H](O)C[C@H]2C(=O)N[C@@H](C)c2ccc(-c3scnc3C)cc2)C(C)C)on1 (some centres unmarked) [Example 62]" value_observed="A/A (A = Dmax >75%)"
molecule="Cc1ncsc1-c1ccc([C@H](C)NC(=O)[C@@H]2C[C@@H](O)CN2C(=O)[C@@H](c2cc(O[C@@H](C)CN3CCC(N4CCN5c6cc(-c7ccccc7O)nnc6NC[C@H]5C4)C3)no2)C(C)C)cc1 (some centres unmarked) [Example 48]" value_observed="B (B = 50%< Dmax <=75%)"
molecule="Cc1ncsc1-c1ccc([C@H](C)NC(=O)[C@@H]2C[C@@H](O)CN2C(=O)[C@@H](c2cc(O[C@H](C)CN3CCC(N4CCN5c6cc(-c7ccccc7O)nnc6NC[C@H]5C4)C3)no2)C(C)C)cc1 (single isomer, unassigned)" value_observed="A/A (A = Dmax >75%)"

---

target: SMARCA2 (Homo sapiens (Human)); assay: SMARCA2 HiBiT degradation assay in HEK293T cells; assay type: cell-based; conditions: 293T HiBiT assay, 24 h; read-out: DC50 (SM2-293T) SMARCA2 degradation potency
Reported DC50 values for the following compounds.
Observation type: DC50

compound=Cc1ncsc1-c1ccc([C@H](C)NC(=O)[C@@H]2C[C@@H](OC(=O)C(C)C)CN2C(=O)[C@@H](c2cc(OCCN3CCN4c5cc(-c6ccccc6O)nnc5NC[C@H]4C3)no2)C(C)C)cc1 value_observed="< 100 nM"
compound="Cc1ncsc1-c1ccc([C@H](C)NC(=O)[C@@H]2C[C@@H](O)CN2C(=O)[C@@H](c2cc(OCCN3CC4CC(C3)C4N3CCN4c5cc(-c6ccccc6O)nnc5NCC4C3)no2)C(C)C)cc1 (stereo partly shown)" value_observed="100 to 1000 nM"
compound="Cc1ncsc1-c1ccc([C@H](C)NC(=O)[C@@H]2C[C@@H](O)CN2C(=O)[C@@H](NC(=O)CCN2CCC(CN3CCN4c5cc(-c6ccccc6O)nnc5NCC4C3)CC2)C(C)(C)C)cc1 (stereo partly shown)" value_observed="100 to 1000 nM"
compound=Cc1nccn1-c1ccc([C@H](C)NC(=O)[C@@H]2C[C@@H](O)CN2C(=O)[C@@H](c2cc(OCCN3CCC(CN4CCN5c6cc(-c7ccccc7O)nnc6NC[C@H]5C4)CC3)no2)C(C)C)cc1 value_observed="< 100 nM"

---

target: SMARCA2 (Homo sapiens (Human)); experiment: SMARCA2 HiBiT degradation assay in HeLa cells; assay type: cell-based; conditions: 18 hours, read-out: Dmax % (SM2-HeLa) maximum SMARCA2 degradation within the concentrations tested
Dmax values by entry
Observation type: Dmax

compound="Cc1ncsc1-c1ccc([C@H](C)NC(=O)[C@@H]2C[C@@H](O)CN2C(=O)[C@@H](c2cc(O[C@@H](C)CN3CCC(N4CCN5c6cc(-c7ccccc7O)nnc6NCC5(C)C4)C3)no2)C(C)C)cc1 (some centres unmarked)" value_observed="> 75%"
compound="Cc1ncsc1-c1ccc([C@H](C)NC(=O)[C@@H]2C[C@@H](O)CN2C(=O)[C@@H](c2cc(O[C@H](C)CN3CCC(N4CCN5c6cc(-c7ccccc7O)nnc6NC[C@H]5C4)C3)no2)C(C)C)cc1 (single isomer, unassigned)" value_observed="> 75%"

---

molecular target: SMARCA2 (Homo sapiens (Human), UniProt P51531); assay: In Cell Western SMARCA2 degradation in NCIH520 cells; format: cell-based; conditions: H520 cells, overnight; read-out: DC50 (SM2_H520) SMARCA2 degradation potency
In this section we review reported DC50 values for a set of compounds.
Observation type: DC50

compound="Cc1ncsc1-c1ccc([C@H](C)NC(=O)[C@@H]2C[C@@H](O)CN2C(=O)[C@@H](NC(=O)CN2CCN3c4cc(-c5ccccc5O)nnc4NCC3C2)C(C)(C)C)cc1 (single isomer, unassigned) [Example 1b]" observation_type=DC50 value_observed="0.1 to 1 µM"
compound="Cc1scnc1-c1ccc(CNC(=O)[C@@H]2C[C@@H](O)CN2C(=O)[C@@H](NC(=O)CN2CCN3c4cc(-c5ccccc5O)nnc4NCC3C2)C(C)(C)C)cc1 (single isomer, unassigned) [Example 2b]" observation_type=DC50 value_observed="1 to 10 µM"
compound="Cc1ncsc1-c1ccc([C@H](C)NC(=O)[C@@H]2C[C@@H](O)CN2C(=O)C(c2cc(OCCN3CCC(CN4CCN5c6cc(-c7ccccc7O)nnc6NCC5C4)CC3)no2)C(C)C)cc1 (stereo in doubt) [Example 5]" observation_type=DC50 value_observed="< 0.1 µM"
compound="Cc1scnc1-c1ccc(CNC(=O)[C@@H]2C[C@@H](O)CN2C(=O)[C@@H](NC(=O)CN2CCN3c4cc(-c5ccccc5O)nnc4NCC3C2)C(C)(C)C)cc1 (single isomer, unassigned) [Example 2a]" observation_type=DC50 value_observed="0.1 to 1 µM"
compound="Cc1ncsc1-c1ccc([C@H](C)NC(=O)[C@@H]2C[C@@H](O)CN2C(=O)[C@@H](NC(=O)CN2CCN3c4cc(-c5ccccc5O)nnc4NCC3C2)C(C)(C)C)cc1 (single isomer, unassigned) [Example 1a]" observation_type=DC50 value_observed="0.1 to 1 µM"
compound="Cc1ncsc1-c1ccc([C@H](C)NC(=O)[C@@H]2C[C@@H](O)CN2C(=O)[C@@H](c2cc(OCCN3CCN4c5cc(-c6ccccc6O)nnc5NCC4C3)no2)C(C)C)cc1 (stereo partly shown) [Example 4]" observation_type=DC50 value_observed="< 0.1 µM"
compound="Cc1ncsc1-c1ccc([C@H](C)NC(=O)[C@@H]2C[C@@H](O)CN2C(=O)[C@@H](NC(=O)CN2CCC(CN3CCN4c5cc(-c6ccccc6O)nnc5NCC4C3)CC2)C(C)(C)C)cc1 (stereo partly shown) [Example 3]" observation_type=DC50 value_observed="< 0.1 µM"
